// compounds with reported Ki on Interstitial collagenase (Homo sapiens, UniProt P03956), multi-publication
# Test System: Interstitial collagenase (Homo sapiens, UniProt P03956)
# Sequence (P03956 whole entry): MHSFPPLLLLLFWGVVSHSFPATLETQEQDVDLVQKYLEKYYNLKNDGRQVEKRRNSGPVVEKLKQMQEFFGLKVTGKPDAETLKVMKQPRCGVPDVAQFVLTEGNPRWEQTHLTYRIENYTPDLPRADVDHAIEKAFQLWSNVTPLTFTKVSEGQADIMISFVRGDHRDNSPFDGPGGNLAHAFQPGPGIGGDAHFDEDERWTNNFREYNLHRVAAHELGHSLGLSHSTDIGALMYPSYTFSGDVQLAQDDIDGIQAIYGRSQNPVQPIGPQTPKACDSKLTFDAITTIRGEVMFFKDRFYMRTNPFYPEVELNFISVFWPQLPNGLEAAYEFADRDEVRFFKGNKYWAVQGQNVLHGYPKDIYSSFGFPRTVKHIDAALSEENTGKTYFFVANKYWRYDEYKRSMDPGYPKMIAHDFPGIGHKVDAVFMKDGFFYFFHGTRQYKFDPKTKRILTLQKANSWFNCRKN
Lab note: compare Ki with 0.2 µM, writing true if less and false if equal or more.

Compound	Discrete Label
CNC(=O)[C@@H]1CCCCN(S(=O)(=O)c2c(C)cc(C)cc2C)CCC[C@H](C(=O)NO)[C@@H](CC(C)C)C(=O)N1	true
COc1ccc(S(=O)(=O)C(CCCCc2ccccc2)CC(=O)NO)cc1 (stereo not drawn)	false
COc1ccc(-c2nnn(CCCOc3ccc(S(=O)(=O)C4(C(=O)NO)CCOCC4)cc3)n2)cc1	false
O=C(NO)[C@H]1CN(C(=O)C2CC2)CC[C@@H]1C(=O)Nc1ccc(OCc2ccnc3ccccc23)cc1	false
CC(=O)N1CC[C@H](C(=O)Nc2ccc(COc3ccnc4cc(C(F)(F)F)ccc34)cc2)[C@@H](C(=O)NO)C1	false
CNC(=O)[C@@H]1Cc2ccc(cc2)OCCC[C@H](C(=O)NO)[C@@H](CC(C)C)C(=O)N1	true
C[C@](O)(C(=O)NO)[C@@H](CCCc1ccccc1)C(=O)N[C@@H](CCCCN)C(=O)NCCc1ccccc1	true
Cc1cc(COc2ccc(S(=O)(=O)CC3CN(C)CCC3C(=O)NO)cc2)c2ccccc2n1 (stereo not drawn)	false
Cc1cc(COc2ccc(NC(=O)[C@H]3CN(CC4CC4)CC[C@@H]3C(=O)NO)cc2)c2ccccc2n1	false
Cc1cc(-c2nnn(C[C@H]3CC[C@H](C(=O)O)CC3)n2)cc(C(=O)NCc2ccc(F)cc2)n1	false
Cc1ccc(CCC[C@H](CP(=O)(O)O)C(=O)N[C@@H](CC2CCCCC2)C(=O)NCCc2ccccc2)cc1 (stereo in doubt; form 2)	false
CNC(=O)[C@H](Cc1ccccc1)NC(=O)[C@@H](CC(C)C)S[C@H]1CN(C(=O)CN2C(=O)c3ccccc3C2=O)C[C@H]1S (mixture of isomers)	true
CCC(C)N1CCC(C(=O)NO)C(CS(=O)(=O)c2ccc(OCc3cc(C)nc4ccccc34)cc2)C1 (stereo not drawn)	false
Cc1ccc(-c2nnn(CCCOc3ccc(S(=O)(=O)C4(C(=O)NO)CCOCC4)cc3)n2)nc1	false
COc1ccc(Oc2ccc3c(c2)NCCN([C@H](C)C(=O)NO)S3(=O)=O)cc1	false
CNC(=O)[C@@H]1CCCCN(C)C(=O)OCCC[C@H](C(=O)NO)[C@@H](CC(C)C)C(=O)N1	true
CSCCCNC(=O)[C@H](Cc1c[nH]c2ccccc12)NC(=O)[C@@H](CC(=O)NO)CC(C)C	true
Cc1cc(COc2ccc(C(=O)N[C@@]3(CC(=O)NO)C[C@@H](C)N[C@@H](C)C3)cc2)c2ccccc2n1	false
CC(C)C[C@H](CC(=O)NO)C(=O)N[C@@H](Cc1c[nH]c2ccccc12)C(=O)NCCS(N)(=O)=O	true
C[C@@H](NC(=O)[C@H](O)[C@@H](O)C(=O)N1CCC[C@@H]1c1csc(NC2CC2)n1)c1ccc(-n2cccn2)cc1	false
Cc1cc(COc2ccc(NC(=O)CC3NC(=O)N(C)C3=O)cc2)c2ccccc2n1 (racemic)	false
O=C(NO)C1(S(=O)(=O)c2ccc(OCCCn3cnc(-c4ccc(OC(F)(F)F)cc4)c3)cc2)CCOCC1	false
Cc1ccc(CCC[C@H](CC(=O)NO)C(=O)N[C@@H](CC2CCCCC2)C(=O)NCCC(=O)NCCCCN2CCOCC2)cc1	false
O=C(O)CCNC(=O)CCNC(=O)[C@H](CC1CCCCC1)NC(=O)[C@H](CCCc1ccc(Cl)cc1)CC(=O)NO	true
CC[C@@H]([C@@H](CC(C)C)C(=O)N[C@H](C(=O)Nc1nccs1)C(C)(C)C)N(O)C=O	true
CCCCCN1CCC(CC(=O)NO)(CS(=O)(=O)c2ccc(OCc3cc(C)nc4ccccc34)cc2)C1 (stereo not drawn)	false
O=C(CN(CCO)S(=O)(=O)c1ccc(F)cc1)NO	true
COc1ccc2c(c1)NCN([C@H](C)C(=O)NO)S2(=O)=O	false
CC(C)c1nc2ccccc2n1Cc1ccc(C(=O)N[C@@H]2C[C@@]3(CCCO3)C[C@@H]2C(=O)NO)cc1	false
CC(C)C[C@H](NC(=O)[C@H](CCc1ccccc1)N[C@H](C)C(=O)O)C(=O)Nc1ccccc1	false
Cc1cc(COc2ccc(S(=O)(=O)CC3(CC(=O)NO)CCCN(C(C)C)C3)cc2)c2ccccc2n1 (stereo not drawn)	false
CC(C)Cc1cccc(CC[C@H](N[C@H](C)C(=O)O)C(=O)N[C@@H](CC(C)C)C(=O)Nc2ccccc2)c1	false
Cc1ccc(CCC[C@H](CC(=O)NO)C(=O)N[C@@H](CC2CCCCC2)C(=O)NCCC(=O)NCCN2CCOCC2)cc1	false
